# Target: Human neutrophil elastase (Homo sapiens, UniProt P08246)
# Construct: purchased Enzo BML-SE284
# Sequence (P08246 30-267): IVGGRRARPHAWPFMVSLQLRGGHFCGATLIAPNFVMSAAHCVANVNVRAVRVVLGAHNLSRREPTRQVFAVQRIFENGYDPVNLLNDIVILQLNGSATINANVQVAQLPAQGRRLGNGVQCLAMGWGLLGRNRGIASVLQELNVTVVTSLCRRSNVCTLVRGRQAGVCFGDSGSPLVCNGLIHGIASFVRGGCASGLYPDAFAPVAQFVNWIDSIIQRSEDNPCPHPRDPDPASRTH
# Assay Notes: Serine protease enzyme inhibition assay, HNE
# Assay type: biochemical
# Experimental Conditions: enzyme assay, mean ± S.E.M. (n ≥ 3); read-out: IC50 HNE
pIC50: −log10 of the molar value.
Consider the following compounds and their measured pIC50 readings.

Examples from the recorded data:
Compound: O=C(/C=C/c1ccc(O)c(O)c1)O[C@H]1[C@H](O)C[C@](O)(C(=O)O)C[C@H]1OC(=O)/C=C/c1ccc(O)c(O)c1 [Compound 7, 4,5-DCQA]
pIC50: < 4.52
//
Compound: C[C@H]1[C@H](C)CC[C@]2(C(=O)O)CC[C@]3(C)C(=CC[C@@H]4[C@@]5(C)CC[C@H](O)C(C)(C)[C@@H]5CC[C@]43C)[C@H]12 [Compound 9, ursolic acid]
pIC50: 4.94

# evaluate next
Name the recorded pIC50 of N#CC=C1C=CC(O)CC1OC1OC(CO)C(O)C(O)C1O (stereo not drawn) [Compound 19, menisdaurin F] , assay system Human neutrophil elastase (Homo sapiens, UniProt P08246).
< 4.52

Where do these numbers come from? They come from paper PMC5041076.
